Test: Experimental lipophilicity as RM values by reversed-phase TLC
Format: physicochemical
Conditions: RPTLC, methanol/water 70/30 v/v, five measurements
The label met is reserved for RM strictly under -0.3; not met covers values equal to or above it.

>>> class_name("CN(C)c1ccc(/C=C/c2cn(C(=O)/C=C/c3ccccc3)cc2C(=O)c2ccccc2)cc1")
"met"
>>> class_name("CN(C)c1ccc(/C=C/c2c[nH]cc2C(=O)c2ccc(Cl)cc2)cc1")
"not met"
>>> class_name("CN(C)c1ccc(-c2cn(C(=O)/C=C/c3ccccc3)cc2C(=O)c2ccc(Cl)cc2)cc1")
"met"
>>> class_name("CN(C)c1ccc(-c2c[nH]cc2C(=O)c2ccc(Cl)cc2)cc1")
"not met"

Here is the next item to consider.
Request: Answer whether the molecule CN(C)c1ccc(-c2c[nH]cc2C(=O)c2cccs2)cc1 has RM strictly less than -0.3
Response: met

This collection of values is drawn from paper PMC10746053.
